# Test system: RPMI-8226 leukemia
# experimentSummary: NCI tumour cell line growth inhibition, 48 h
Entries and their TGI values follow.

INSERT INTO assay_data (compound, quantityname, assayresult) VALUES
  ('S=c1nc2[nH]c3ccc(Br)cc3c2n[nH]1', 'TGI', '> 100 µM'),
  ('CCN(CC)C(=S)N/N=C/c1ccccn1', 'TGI', '> 100 µM'),
  ('Cc1cc2ccccc2n1CC(=O)N1CCCC1', 'TGI', '> 100 µM'),
  ('N=S(=O)(c1ccccc1)c1ccccc1[N+](=O)[O-] (stereo unspecified)', 'TGI', '> 100 µM'),
  ('CCOC(=O)C1=C(C)C(C(=O)OC)/C(=C/c2cccc3cccnc23)C1=O (stereo unspecified)', 'TGI', '> 10 µM');

Please look at the following compound next.
Please give measured TGI of the following entry: O=C(/C=C/c1ccc(-c2ccccc2)cc1)NCc1ccc(C(=O)NCCc2c[nH]c3ccccc23)cc1 > 100 µM

====

# Tested on: A498 renal
# experimentSummary: NCI tumour cell line growth inhibition, 48 h
TGI by entry:

INSERT INTO measurements (compound, assayresult) VALUES
  ('CC(=N\O)/C(C)=N/O.CC(=N\O)/C(C)=N/O.CC(=N\O)/C(C)=N/O.CC(=N\O)/C(C)=N/O.[Cu].[Cu]', '39.1 µM'),
  ('C=C(CC(=O)Nc1ccc(C(=O)OC)o1)C(=O)OC', '> 100 µM'),
  ('COC(=O)c1ccc(CCc2cc(O)ccc2O)cc1', '> 96.7 µM'),
  ('Nc1ccc(-c2nc3ccccc3[nH]2)c(O)c1', '68.5 µM'),
  ('N#CC(C#N)=Cc1c(O)ccc2ccccc12', '31.1 µM'),
  ('CC(NC1=NCCO1)c1cccc([N+](=O)[O-])c1 (stereo unspecified)', '> 100 µM'),
  ('COc1cccc2c1C1(O)C2CCCC12OCCCO2 (stereo unspecified)', '> 100 µM'),
  ('CCCCCCOc1ccc(/C=N/NC(N)=S)cc1', '32.3 µM');

Fill in reported TGI for this entry: C[C@H](CC[C@@H](O)C(C)(C)O)[C@H]1CC[C@@]2(C)[C@@H]3CC=C4[C@@H](CC[C@H](O)C4(C)C)[C@]3(C)C(=O)C[C@]12C > 50 µM

Please give the documented TGI of O=c1[nH]c2cc3cccnc3c(Cl)c2nc1C(F)(F)F > 100 µM

Consider the compound CS(=O)(=O)N(CCC#N)c1ccc(/C=N/NC(=O)CC(=O)Nc2cccc(Cl)c2)cc1 and give its recorded TGI. > 100 µM

====

TGI for assorted compounds
# System: SNB-78 CNS
# experimentSummary: NCI tumour cell line growth inhibition, 48 h

INSERT INTO results (compound, assayresult) VALUES
  ('CSc1nc(NC2OCC(O)C(O)C2O)c(N)c(=O)n1C (configuration not stated)', '> 100 µM'),
  ('CC1CCC2(NC1)OC1CC3[C@@H]4CC=C5C=CCC[C@]5(C)C4CC[C@]3(C)C1C2C (some centres not stated)', '> 100 µM'),
  ('CCN(CC)CC(=O)/C=C/c1ccc(C)cc1', '> 100 µM'),
  ('CC(=O)O[C@H]1CC[C@@]2(C)C(CC[C@]3(C)C2CC[C@]2(C)Oc4c(C)cc(O)cc4C[C@@H]23)C1(C)C (some centres not stated)', '21.8 µM'),
  ('C=CCC12CCC(=O)C=C1CCC1(C2)OCCO1 (configuration not stated)', '> 100 µM'),
  ('O=S(=O)([O-])[O-].[Cl-].[NH2-].[NH2-].[NH2-].[NH2-].[Ru+3].c1ccc(-c2cccnc2)cc1', '> 100 µM'),
  ('COc1cccc2c1C1(O)C2CCCC12OCCCO2 (configuration not stated)', '> 100 µM'),
  ('CCNc1c(C(=O)N(CC)CC)c(=O)[nH]c2ncccc12', '> 100 µM');

State recorded TGI with SNB-78 CNS, entry NC1CCCCC1N.O=C([O-])P(=O)([O-])[O-].[Na+].[Pt+4] (configuration not stated) , no comment. > 100 µM

Report its TGI with SNB-78 CNS as the test system: CC(=O)OCc1cc(=O)n(C)c2c3c4c(cc12)c(C)cc(=O)n4CO3 14.2 µM

For SNB-78 CNS, give TGI of the listed compound: COc1cc(N=Nc2ccccc2)cc(/C=N\[N-]C(N)=S)c1[O-].COc1cc(N=Nc2ccccc2)cc(/C=N\[N-]C(N)=S)c1[O-].[Fe+4] > 100 µM

Print SNB-78 CNS TGI for CN(C)CCCNc1c2ccccc2nc2cccc([N+](=O)[O-])c12 . 0.0601 µM

====

# Test system: SN12C renal
# experimentSummary: NCI tumour cell line growth inhibition, 48 h
quantityName: TGI

Consider the following illustrative entries.
INSERT INTO results (compound, quantityname, assayresult) VALUES
  ('O=C(NCCCCNCCCNC(=O)c1ccccc1)c1ccccc1', 'TGI', '> 100 µM'),
  ('NS(=O)(=O)c1ccc(C2C3=C(CCCC3=O)OC3=C2C(=O)c2ccccc2C3=O)cc1 (stereo unspecified)', 'TGI', '1.03 µM'),
  ('O=C(CN1CCCCC1)c1ccc2c(c1)Sc1ccccc1O2', 'TGI', '42.7 µM'),
  ('COc1cc(C(=O)/C=C/c2c(-c3ccc(F)cc3)nc3sc(C)cn23)cc(OC)c1OC', 'TGI', '> 100 µM');

Fill in TGI for record CN(C)CCOC(=O)c1ccc(N)cc1 > 100 µM

Given the compound CCON=C1C(C)(C)C(C)(C)C(C)(C)C1(C)C , write its reported TGI. > 100 µM

====

# Tested on: BT-549 breast
# experimentSummary: NCI tumour cell line growth inhibition, 48 h
Catalogue of compounds with associated TGI

Use these answered entries as a reference point.
INSERT INTO results (compound, quantityname, assayresult) VALUES
  ('C=CCN(c1cc(OCc2ccccc2)c(NC(C)=O)cc1[N+](=O)[O-])S(C)(=O)=O', 'TGI', '93.3 µM'),
  ('O=C(NCCCCNCCCNC(=O)c1ccccc1)c1ccccc1', 'TGI', '> 100 µM'),
  ('CCCCCCCCCCCCCCCC(=O)OCC1OC(n2cnc3c(=S)nc(N)[nH]c32)C(OC(=O)CCCCCCCCCCCCCCC)C1OC(=O)CCCCCCCCCCCCCCC (configuration not stated)', 'TGI', '> 50 µM'),
  ('CC1CC[C@@]2(OC1)O[C@H]1C[C@H]3[C@@H]4CC[C@H]5C[C@@H](OC6OC(CO)C(OC7OC(CO)C(OC8OC(CO)C(O)C(OC9OC(C)C(OC%10OC(C)C(O)C(O)C%10O)C(O)C9O)C8OC8OCC(O)C(O)C8O)C(O)C7O)C(O)C6O)CC[C@]5(C)[C@H]4CC(=O)[C@]3(C)[C@H]1[C@@H]2C (some centres not stated)', 'TGI', '37 µM'),
  ('CCc1ccc(-c2ccc(=O)n(-c3ccc(S(N)(=O)=O)cc3)n2)cc1', 'TGI', '21.7 µM'),
  ('O=C(Nc1ncc(Cc2ccccc2)s1)c1ccc2c(c1)OCCCO2', 'TGI', '> 100 µM');

Turning now to a further record.
Supply TGI value. Item: C=C(C)C(=O)OC1CC2(C)OC2CC(OC(C)=O)/C(C)=C/C2OC(=O)C(=C)C21 (configuration not stated) 5.41 µM

====

# Test system: HOP-18 NSCLC
# experimentSummary: NCI tumour cell line growth inhibition, 48 h
quantityName: TGI

INSERT INTO measurements (compound, quantityname, assayresult) VALUES
  ('CC(=O)NC1=C(C)C(=O)c2c(nc3n2CCC3O)C1=O (stereo not given)', 'TGI', '> 100 µM'),
  ('N=S(=O)(c1ccccc1)c1ccccc1[N+](=O)[O-] (stereo not given)', 'TGI', '> 100 µM'),
  ('C=CCC12CCC(=O)C=C1CCC1(C2)OCCO1 (stereo not given)', 'TGI', '> 100 µM'),
  ('C[C@@H]1C[C@]2(C[C@@H](C)[C@H]3C(C[C@@]4(C)CCC[C@@H]5C6=C[C@H](CCC34C)OC6=CC(=O)OC5(C)C)O2)OC1=O (stereo not given in full)', 'TGI', '> 51.5 µM'),
  ('O=C(CC1(O)C(=O)Nc2ccc(Br)cc21)c1ccc(Cl)cc1 (stereo not given)', 'TGI', '> 100 µM');

# return recorded TGI for input COc1ccc(C[C@H](N)C(=O)N2C[C@H](CO)C[C@H](n3cnc4c(N(C)C)ncnc43)C2)cc1 > 100 µM

Name the recorded TGI of the compound listed here: COc1cccc2c1C1(O)C2CCCC12OCCCO2 (stereo not given) > 100 µM

// fetch TGI given entry CCN(CC)c1ccc(N=C2C=CC(=O)c3ncccc32)c(C)c1 22.8 µM

Identify TGI associated with the compound CCNC(=O)/C=C/CCC#Cc1ccc(-c2ccc(-c3cccs3)s2)s1 > 100 µM

Given the compound O=C(O)CNS(=O)(=O)c1ccc(NC(=O)c2ccc(F)cc2)cc1 , write its reported TGI. > 100 µM
